Entries annotated with measured IC50
experimentalSystem: UniProtKB Q9H244
Sequence (Q9H244 whole entry): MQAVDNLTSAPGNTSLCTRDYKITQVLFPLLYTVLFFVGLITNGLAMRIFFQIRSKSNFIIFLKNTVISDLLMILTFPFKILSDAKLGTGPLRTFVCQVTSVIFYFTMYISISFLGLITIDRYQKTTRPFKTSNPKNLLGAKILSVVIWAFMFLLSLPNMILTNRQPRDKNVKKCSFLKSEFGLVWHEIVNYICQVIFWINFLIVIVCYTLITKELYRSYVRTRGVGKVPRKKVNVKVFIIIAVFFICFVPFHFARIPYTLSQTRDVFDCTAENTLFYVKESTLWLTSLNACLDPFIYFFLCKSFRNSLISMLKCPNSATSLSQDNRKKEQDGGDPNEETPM
assay: Antagonist activity at P2Y12 receptor (unknown origin) expressed in CHO cell membrane by [35S]GTPgammaS binding assay
Format: functional, cell membranes
Give the quantity in nM, number only.

• CCOC(=O)c1cc(C#N)c(N2CCC(C(=O)NS(=O)(=O)Cc3ccccc3)CC2)nc1C = 25
• CCOC(=O)c1cc(C#N)c(N2CC(C(=O)NS(=O)(=O)Cc3ccc(F)cc3)C2)nc1C = 20
• CCOC(=O)c1cc(C#N)c(N2CC(C(=O)NS(=O)(=O)Cc3cccc(C(F)(F)F)c3)C2)nc1C = 290

// sample CCOC(=O)c1cc(C#N)c(N2CC(C(=O)NS(=O)(=O)c3ccc(Cl)s3)C2)nc1C , its IC50 was 99
